# Tested on: human APOE RNA
# test: Activity in APOE C57BL/6NTac-Apoeem7250 knock-in mice, single ICV bolus, 8 weeks (Example 11)
# Format: in vivo
# condition-context: cortex; single ICV bolus 300 μg; 8 weeks post treatment; normalized to mouse Ppia
Strand notation (5' to 3'): a small letter for the sugar, then the base; units joined by * are phosphorothioate-linked, units joined directly phosphodiester-linked; [ ] holds rarer units or linkages, { } end groups; capitals alone tell only the bases. [ms] = mesyl phosphoramidate linkage; e = 2'-O-(2-methoxyethyl) (MOE); k = constrained ethyl (cEt); [5mC] = 5-methylcytosine; d = 2'-deoxy (DNA)
Form field: APOE RNA (% control) Cortex (one value per entry).
Number only, in % control; omit the unit.

substance: 1809813 (eT*eTeGkG*dT*dG[ms]dA[ms]dA[ms]dT*d[5mC]*dT*dT*dT*dA[ms]kT*kT*eA*eA*eA*e[5mC]; antisense) [Compound 1809813]
APOE RNA (% control) Cortex: 37
--
substance: 1785601: modified oligonucleotide complementary to human APOE RNA (k[5mC]*kT*kT*dG[ms]dG[ms]dT[ms]dG*dA[ms]dA[ms]dT*d[5mC]*dT*dT*dT*dA[ms]dT*kT*kA*dA[ms]kA; antisense) [compound 1785601]
APOE RNA (% control) Cortex: 28

Next item in the queue.
Item 1652907: 5-10-5 MOE gapmer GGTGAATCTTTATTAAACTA, linkages soooszzssssssssooss (antisense eG*eGeTeGeA*dA[ms]dT[ms]d[5mC]*dT*dT*dT*dA*dT*dT*dA*eAeAe[5mC]*eT*eA) [compound 1652907] has what recorded APOE RNA (% control) Cortex? 54

====

# Test system: human APOE RNA
# test: Activity in APOE C57BL/6NTac-Apoeem7250 knock-in mice, single ICV bolus, 8 weeks (Example 11)
# Assay type: in vivo
# condition-context: cortex; single ICV bolus 300 μg; 8 weeks post treatment; normalized to mouse Ppia
Strand notation (5' to 3'): a small letter for the sugar, then the base; units joined by * are phosphorothioate-linked, units joined directly phosphodiester-linked; [ ] holds rarer units or linkages, { } end groups; capitals alone tell only the bases. [ms] = mesyl phosphoramidate linkage; e = 2'-O-(2-methoxyethyl) (MOE); k = constrained ethyl (cEt); [5mC] = 5-methylcytosine; d = 2'-deoxy (DNA)
property-name: APOE RNA (% control) Cortex
Number only, in % control; omit the unit.

Record excerpt, results attached:
substance: 1778120 (eA*e[5mC]eTeTeGeG*dT*dG[ms]dA[ms]dA*dT*d[5mC]*dT*dT*dT*dA[ms]kTeT*eA*eA; antisense) [Compound 1778120]
APOE RNA (% control) Cortex: 57
//
substance: 1757574 (eA*e[5mC]eTeT*eG*eG*dT*dG[ms]dA[ms]dA[ms]dT*d[5mC]*dT*dT*dT*dA[ms]kT*kT*eA*eA; antisense) [Compound 1757574]
APOE RNA (% control) Cortex: 44
//
substance: 1681005: 5-10-5 MOE gapmer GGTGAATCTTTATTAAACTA, linkages ssssszsssszzszsssss (antisense eG*eG*eT*eG*eA*dA[ms]dT*d[5mC]*dT*dT*dT[ms]dA[ms]dT*dT[ms]dA*eA*eA*e[5mC]*eT*eA) [compound 1681005]
APOE RNA (% control) Cortex: 101
//
substance: 1778129: modified oligonucleotide complementary to human APOE RNA (eA*e[5mC]eTeTeG*kG*dT*dG[ms]dA[ms]dA*dT*d[5mC]*dT*dT*dT*dA[ms]kT*kT*eA*eA; antisense) [compound 1778129]
APOE RNA (% control) Cortex: 19
//
substance: 1785616 (k[5mC]*dT[ms]dT[ms]kG*dG[ms]kT*dG[ms]dA[ms]dA[ms]dT*d[5mC]*dT*dT*dT*dA*dT[ms]kT*kA*dA[ms]kA; antisense) [Compound 1785616]
APOE RNA (% control) Cortex: 47

Item 1693042: 5-10-5 MOE gapmer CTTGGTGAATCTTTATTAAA, linkages sssosszzzssssssssss (antisense e[5mC]*eT*eT*eGeG*dT*dG[ms]dA[ms]dA[ms]dT*d[5mC]*dT*dT*dT*dA*eT*eT*eA*eA*eA) [compound 1693042] has what recorded APOE RNA (% control) Cortex? 77

Item 1757571 (eA*e[5mC]eTeT*eG*kG*dT*dG[ms]dA[ms]dA[ms]dT*d[5mC]*dT*dT*dT*dA[ms]eT*eT*eA*eA; antisense) [Compound 1757571] has what recorded APOE RNA (% control) Cortex? 66

Item 1652911: 5-10-5 MOE gapmer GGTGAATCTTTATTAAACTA, linkages sooosszzzssssssooss (antisense eG*eGeTeGeA*dA*dT[ms]d[5mC][ms]dT[ms]dT*dT*dA*dT*dT*dA*eAeAe[5mC]*eT*eA) [compound 1652911] has what recorded APOE RNA (% control) Cortex? 130

Item 1778119 (eA*e[5mC]eTeTeG*eG*dT*dG[ms]dA[ms]dA*dT*d[5mC]*dT*dT*dT*dA[ms]kTeT*eA*eA; antisense) [Compound 1778119] has what recorded APOE RNA (% control) Cortex? 52

Item 1778114: modified oligonucleotide complementary to human APOE RNA (eA*e[5mC]eTeTkG*kG*dT*dG[ms]dA[ms]dA*dT*d[5mC]*dT*dT*dT*dA[ms]eTeT*eA*eA; antisense) [compound 1778114] has what recorded APOE RNA (% control) Cortex? 47
